Data provenance: patent US12084419B2

molecular target: His6 tagged human recombinant FABP4 (Homo sapiens); construct: purchased Cayman Chemicals 10009549; assay: FABP4 TR-FRET assay: displacement of BODIPY FL C12 fatty acid; settings: 10 μM compound, triplicates, inhibition of BODIPY FL C12 binding
Sequence (P15090 whole entry): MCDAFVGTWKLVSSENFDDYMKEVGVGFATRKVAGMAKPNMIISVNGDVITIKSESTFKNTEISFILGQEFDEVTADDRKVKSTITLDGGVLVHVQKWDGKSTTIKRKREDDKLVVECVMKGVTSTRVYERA
readout type: inhibition at 10 µM (%)
Write the number in % without appending the unit.

So what does the record say about inhibition at 10 µM for CCCCCOC1CCCc2c1n(Cc1cccc(C#N)c1)c1c(C(=O)O)cccc21 (centres unmarked) ?
63.3

So what does the record say about inhibition at 10 µM for CCCCCCC1CCCc2c(n(Cc3ccnc(F)c3)c3c(C(=O)O)cccc23)C1 (centres unmarked) ?
90.4

Field: next compound
So what does the record say about inhibition at 10 µM for CCCCCCC1CCCc2c(n(Cc3ccccc3C#N)c3c(C(=O)O)cccc23)C1 (centres unmarked) ?
88.6
